# credit: patent US8871735B2

target: AC2 (UniProt P26769); assay: AC inhibition, recombinant AC proteins: AC2
readout-kind: IC50 (µM)
Write the answer as a number in µM, unit excluded.

Value lookup for IC50; key = Nc1ncnc2c1ncn2C1CCC(C(=O)NO)C1 (stereo not shown)
65.3

###

biological target: AC5 (UniProt P30803); construct: IC50 AC5; other: recombinant AC proteins; other: THFA: in the presence of Gs-α/GTPαS/forskolin; experiment: AC inhibition, recombinant AC proteins: AC5; type: biochemical; details: recombinant AC proteins; read-out: IC50 AC5
readout-kind: IC50 (nM)
# output: bare number, implied unit nM

# query: IC50 of entry Nc1ncnc2c1ncn2C1CCC(C(=O)NO)C1 (stereo not shown)
320
